Target: SIX1-Q177R homeodomain (human, UniProt Q15475 108-198, Q177R)
Sequence: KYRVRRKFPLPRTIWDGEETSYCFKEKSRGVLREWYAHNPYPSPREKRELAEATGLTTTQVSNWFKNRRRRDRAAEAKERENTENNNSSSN
Assay: universal protein binding microarray; Universal all-10-mer PBM (8x60K, AMADID 030236), 300 nM GST-tagged protein, Alexa Fluor 488 anti-GST; buffer, salt, pH and temperature not stated (as in Berger); high values mean tight binding
Settings: protein: ivt; tags: N-terminal GST; dsDNA, one strand shown
In all, about 33,000 sequences were measured (“e-score”: median about -0.05, highest 2% from about 0.38 on). The sample holds the highest values, similar sequences and a random draw of the others, so the mix is not that of the screen.
property: binding signal (E-score)
Provide only the numeric value, understood in E-score.

Bench note: what binding signal did `CCCGACCA` show?
0.204

Bench note: what binding signal did `GGGGTTGA` show?
0.2

Bench note: what binding signal did `CCCCGAGC` show?
0.198

* * *

Target: SIX1-Q177R homeodomain (human, UniProt Q15475 108-198, Q177R)
Sequence: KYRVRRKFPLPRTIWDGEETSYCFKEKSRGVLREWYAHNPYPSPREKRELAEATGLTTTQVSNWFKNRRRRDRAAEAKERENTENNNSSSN
Test: universal protein binding microarray; Universal all-10-mer PBM (8x60K, AMADID 030236), 300 nM GST-tagged protein, Alexa Fluor 488 anti-GST; buffer, salt, pH and temperature not stated (as in Berger); high values mean tight binding
Conditions: protein: ivt; tags: N-terminal GST; dsDNA, one strand shown
Whole data set: some 33,000 sequences, median “e-score” near -0.05, cut for the highest 2% near 0.38. The full list was thinned out, with the highest values kept by preference.
Record true (1) whenever binding signal is at 0.4 E-score or higher; record false (0) when lower.

Tell me whether binding signal is at least 0.4 E-score here: `ACCATGGT`
false (0)

Tell me whether binding signal is at least 0.4 E-score here: `CCGTGTGC`
false (0)

Tell me whether binding signal is at least 0.4 E-score here: `CCCTGTAC`
false (0)

Tell me whether binding signal is at least 0.4 E-score here: `GGTGTAGA`
true (1)

Tell me whether binding signal is at least 0.4 E-score here: `ACGTGTAT`
false (0)

Tell me whether binding signal is at least 0.4 E-score here: `GCGTATAC`
false (0)

Tell me whether binding signal is at least 0.4 E-score here: `GGGGTAAC`
false (0)

Tell me whether binding signal is at least 0.4 E-score here: `ATACACTA`
false (0)

Tell me whether binding signal is at least 0.4 E-score here: `GCGTGTAC`
true (1)

Tell me whether binding signal is at least 0.4 E-score here: `GGGATCAA`
false (0)

Tell me whether binding signal is at least 0.4 E-score here: `GGGGTAGA`
false (0)

Tell me whether binding signal is at least 0.4 E-score here: `CCGTGTAC`
true (1)

Tell me whether binding signal is at least 0.4 E-score here: `ATACCCGC`
false (0)

Tell me whether binding signal is at least 0.4 E-score here: `CTTTTACA`
false (0)

Tell me whether binding signal is at least 0.4 E-score here: `CACCTGCG`
false (0)

Tell me whether binding signal is at least 0.4 E-score here: `GTACACTA`
true (1)

* * *

Target: SIX1-Q177R homeodomain (human, UniProt Q15475 108-198, Q177R)
Sequence: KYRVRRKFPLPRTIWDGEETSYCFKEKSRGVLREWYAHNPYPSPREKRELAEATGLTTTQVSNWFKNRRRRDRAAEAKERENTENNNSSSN
Experiment: universal protein binding microarray; Universal all-10-mer PBM (8x60K, AMADID 030236), 300 nM GST-tagged protein, Alexa Fluor 488 anti-GST; buffer, salt, pH and temperature not stated (as in Berger); high values mean tight binding
Conditions: protein: ivt; tags: N-terminal GST; dsDNA, one strand shown
In all, about 33,000 sequences were measured (“e-score”: median about -0.05, highest 2% from about 0.38 on). The entries come from a sample that favours the highest values as a whole.
property: binding signal (E-score)
Provide only the numeric value, understood in E-score.

Bench note: what binding signal did `GGTGTTTA` show?
0.456

Bench note: what binding signal did `GGTATACC` show?
0.303

Bench note: what binding signal did `GGCTACGA` show?
0.196

Bench note: what binding signal did `TAGTGAGA` show?
0.154

Bench note: what binding signal did `AGTGTTAG` show?
0.394

Bench note: what binding signal did `GGCCACAC` show?
0.233

Bench note: what binding signal did `ATCGTGTA` show?
0.403

Bench note: what binding signal did `ACCCGTCT` show?
0.178

Bench note: what binding signal did `CGTGTTTA` show?
0.346

Bench note: what binding signal did `CGGATCCG` show?
0.183

* * *

Molecular target: SIX1-Q177R homeodomain (human, UniProt Q15475 108-198, Q177R)
Sequence: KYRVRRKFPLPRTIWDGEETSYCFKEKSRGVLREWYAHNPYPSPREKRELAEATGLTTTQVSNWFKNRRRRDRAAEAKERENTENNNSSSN
Test: universal protein binding microarray; Universal all-10-mer PBM (8x60K, AMADID 030236), 300 nM GST-tagged protein, Alexa Fluor 488 anti-GST; buffer, salt, pH and temperature not stated (as in Berger); high values mean tight binding
Conditions: protein: ivt; tags: N-terminal GST; dsDNA, one strand shown
Whole data set: some 33,000 sequences, median “e-score” near -0.05, cut for the highest 2% near 0.38. Shown is part of a subset that was picked to be rich in the highest values.
property: binding signal (E-score)
Provide only the numeric value, understood in E-score.

Bench note: what binding signal did `CACTCCCG` show?
0.182

Bench note: what binding signal did `CTTTACAC` show?
0.431

Bench note: what binding signal did `TGTCGTAA` show?
0.163

Bench note: what binding signal did `CCCTAGTA` show?
0.18

Bench note: what binding signal did `CACGTTAC` show?
0.179

Bench note: what binding signal did `TCCTTACA` show?
0.222

Bench note: what binding signal did `CCTTGACC` show?
0.172

Bench note: what binding signal did `CACCGACA` show?
0.374

Bench note: what binding signal did `AAGGGAGT` show?
0.181

Bench note: what binding signal did `CTTTACCC` show?
0.171

Bench note: what binding signal did `ACGCGGGC` show?
0.164

Bench note: what binding signal did `GATTACCC` show?
0.175

Bench note: what binding signal did `CATCACAC` show?
0.317

Bench note: what binding signal did `GTGCAACA` show?
0.292

Bench note: what binding signal did `ATTTACAC` show?
0.451

Bench note: what binding signal did `CACGGAGC` show?
0.163

Bench note: what binding signal did `CTAGACAC` show?
0.393

Bench note: what binding signal did `GTCCTACA` show?
0.243

Bench note: what binding signal did `ACCTAACA` show?
0.203

Bench note: what binding signal did `ATAGAGTC` show?
0.202

Bench note: what binding signal did `GGGTATAA` show?
0.152

Bench note: what binding signal did `GGCGTACA` show?
0.283

Bench note: what binding signal did `CACCCAAC` show?
0.301

Bench note: what binding signal did `CATTACAC` show?
0.452

Bench note: what binding signal did `CGGGTTCA` show?
0.175

Bench note: what binding signal did `AATCACAC` show?
0.348

Bench note: what binding signal did `CACGGGGA` show?
0.199

Bench note: what binding signal did `GACTCCGA` show?
0.198

Bench note: what binding signal did `ATTCGACA` show?
0.163

Bench note: what binding signal did `ATAGTACA` show?
0.312

Bench note: what binding signal did `CACCCCAC` show?
0.355

Bench note: what binding signal did `GTCCAACA` show?
0.216

Bench note: what binding signal did `CACCGCTG` show?
0.249

Bench note: what binding signal did `CCCGATTA` show?
0.166

Bench note: what binding signal did `CTCGCCCC` show?
0.173

Bench note: what binding signal did `CGAGGAAC` show?
0.197

Bench note: what binding signal did `AATTGCAC` show?
0.151

Bench note: what binding signal did `CAGCCGAC` show?
0.196

Bench note: what binding signal did `ATTCACAC` show?
0.348

* * *

Biological target: SIX1-Q177R homeodomain (human, UniProt Q15475 108-198, Q177R)
Sequence: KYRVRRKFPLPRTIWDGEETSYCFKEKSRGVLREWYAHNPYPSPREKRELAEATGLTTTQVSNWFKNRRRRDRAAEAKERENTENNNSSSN
Assay: universal protein binding microarray; Universal all-10-mer PBM (8x60K, AMADID 030236), 300 nM GST-tagged protein, Alexa Fluor 488 anti-GST; buffer, salt, pH and temperature not stated (as in Berger); high values mean tight binding
Settings: protein: ivt; tags: N-terminal GST; dsDNA, one strand shown
Whole data set: some 33,000 sequences, median “e-score” near -0.05, cut for the highest 2% near 0.38. The sample as a whole holds a higher share of the highest values than the screen did.
binding signal vs 0.2 E-score: less than gives Y; not less than gives N.

Is the reported binding signal for `ACACCGTG` strictly below 0.2 E-score?
N

Is the reported binding signal for `AGCCACAC` strictly below 0.2 E-score?
N

Is the reported binding signal for `ACACTTCG` strictly below 0.2 E-score?
N

Is the reported binding signal for `CGCTCTAC` strictly below 0.2 E-score?
Y

Is the reported binding signal for `AGTGCACA` strictly below 0.2 E-score?
Y

Is the reported binding signal for `GTACTGAC` strictly below 0.2 E-score?
Y

Is the reported binding signal for `ACACCGTC` strictly below 0.2 E-score?
N

Is the reported binding signal for `ACACATAA` strictly below 0.2 E-score?
Y

Is the reported binding signal for `CGCGCTAC` strictly below 0.2 E-score?
Y

Is the reported binding signal for `AGTGCACC` strictly below 0.2 E-score?
N
